Tested on: Fibrinogen (Alexa647-labelled)
assay_name: Alexa647-fibrinogen binding to printed small molecules – biochemical, small-molecule microarray, 635/667 nm fluorescence, artefact control for SMM control-protein annotation, profiling panel (AID 1131);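 also: z-score merges 667 nm fluorescence with per-spot signal-to-noise over triplicate slides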
reported_conditions: fibrinogen-A647 binding fluorescence, higher = more signal
Give measured composite z-score for each item. Keep answers brief.
Numbers only.

Example compounds with recorded composite z-score:
[
  {
    "compound": "CCCCCCc1nc(Cc2cc(OC)c(OC)c(OC)c2)cc2c1[Si](C(C)C)(C(C)C)OC2",
    "experimental_readout": "composite z-score",
    "result": -0.0217
  },
  {
    "compound": "Cc1ccc(F)cc1S(=O)(=O)N[C@@H]1CCN(Cc2ccc(Br)cc2)C1",
    "experimental_readout": "composite z-score",
    "result": 0.79
  },
  {
    "compound": "CN(C)C(=O)[C@]1(Cc2ccccc2CN=[N+]=[N-])N=C(c2ccc(OCCCO)cc2)O[C@@H]1c1ccccc1",
    "experimental_readout": "composite z-score",
    "result": 0.947
  }
]

List composite z-score for every entry below, keeping the order given.
1. COC(=O)[C@@]1(Cc2ccc(OC)cc2)[C@H]2c3cc(C(=O)N(C)C)n(Cc4ccc(C)o4)c3C[C@H]2CN1C(=O)c1ccccc1
2. CC(C)N1C(=O)C[C@@](C(=O)O)(c2ccc([N+](=O)[O-])cc2)[C@H]1c1ccc(CO)cc1
3. [N-]=[N+]=Nc1ccccc1[C@@H]1OC(c2ccc(OCCCO)cc2)=N[C@]1(Cc1ccccc1)C(=O)O
4. CS(=O)(=O)CCOC(=O)C1=CC(CCCO)=CC(c2ccc(CN3CCCC3)cc2)N(Cc2sc3ccccc3c2Cl)C=C1C(=O)OCCS(C)(=O)=O (stereo unspecified)
5. C[N+](C)(C)CCCC[C@@H]1NC(=O)[C@@H]2C[C@H](C(=O)NCCCCCCN)[C@H](c3cccc(OCCO)c3)N2C1=O
6. COC(=O)[C@@]1(Cc2ccc(OC)cc2)[C@H]2c3cc(C(=O)N4CCCC4)n(CCc4c[nH]c5ccc(O)cc45)c3C[C@H]2CN1C(=O)c1ccccc1
7. [N-]=[N+]=NCc1ccccc1[C@@H]1OC(c2ccc(OCCCO)cc2)=N[C@]1(CCS(=O)(=O)c1ccccc1)C(=O)O
8. Cc1ccc(S[C@]2(C(=O)O)CC(=O)N(C3CCCCC3)[C@@H]2c2ccc(CO)cc2I)cc1

1: 0.984; 2: -1.14; 3: 0.803; 4: 1; 5: 0.841; 6: 0.948; 7: 0.839; 8: 0.745

List composite z-score for every entry below, keeping the order given.
1. O[C@@H](Cc1ccccc1)[C@@H](/C=C/C1CC1)N(CC#Cc1ccccc1)Cc1ccccc1Br
2. CCOC(=O)C[C@H]1[C@H](OC(=O)c2ccc(C(=O)c3ccccc3)cc2)[C@@H](NC(=O)c2ccc(-c3ccccc3)cc2)c2cc(OCCCO)ccc2N1C(=O)Cc1ccc(OC)cc1

-0.651
0.544

List composite z-score for every entry below, keeping the order given.
1. CCOC(=O)C[C@H]1[C@H](OC(=O)c2cc3ccccc3oc2=O)[C@@H](NC(=O)CC(C)C)c2cc(OCCCO)ccc2N1C(=O)c1ccc2ccccc2n1
2. COCCOC(=O)N1C(=O)[C@@]2(c3cc(C#CC4(O)CCCCCC4)ccc31)[C@H](C(=O)Nc1nc3ccccc3s1)[C@H]1C(=O)O[C@H](c3ccccc3)[C@H](c3ccccc3)N1[C@@H]2c1ccc(O)cc1
3. CCCCCC1=C2CNC(C)(C(=O)OC)C=C2C(C)C1=O (stereo unspecified)

[0.807, 0.942, -0.833]

----------
Test system: Noggin (protein binding on small-molecule microarray)
assay_name: small molecules binding Noggin protein – biochemical, 635/667 nm fluorescence, primary screen (AID 1095);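 also: score merges 667 nm feature fluorescence with signal to noise over triplicate slides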
reported_conditions: 635 nm fluorescence, higher = more signal
Binning of composite z-score into classes: lower level = under 0.5, middle level = from 0.5 up to 1, upper level = 1 and over

[
  {
    "molecule": "O=C1C[C@]2(c3ccc([N+](=O)[O-])cc3)C(=O)N(C3CC3)c3cc(CO)ccc3[C@H]2N1CC12CC3CC(CC(C3)C1)C2",
    "category_label": "lower level"
  },
  {
    "molecule": "CCOC(=O)C[C@H]1[C@H](OC(=O)c2ccc(C(=O)c3ccccc3)cc2)[C@@H](NC(=O)C2CCCCC2)c2cc(OCCCO)ccc2N1C(=O)c1ccc2ccccc2n1",
    "category_label": "middle level"
  },
  {
    "molecule": "COC(=O)[C@]1(CCS(=O)(=O)c2ccccc2)N=C(c2ccc(OCCCO)cc2)O[C@@H]1c1ccccc1N=[N+]=[N-]",
    "category_label": "upper level"
  },
  {
    "molecule": "Cc1ccc(S[C@]2(C(=O)NCC(F)(F)F)CC(=O)N(Cc3cc(C(F)(F)F)cc(C(F)(F)F)c3)[C@@H]2c2ccc(CO)cc2)cc1",
    "category_label": "lower level"
  },
  {
    "molecule": "CS(=O)(=O)CCOC(=O)C1=CC(c2ccc(CO)cc2)=CC(C2CC2)N(Cc2sc3ccccc3c2Cl)C=C1C(=O)OCCS(C)(=O)=O (centres undefined)",
    "category_label": "lower level"
  }
]

Exam item: assign COC(=O)[C@@]1(Cc2ccc(OC)cc2)[C@H]2c3cc(C(=O)N4CCCC4)n(CCc4c[nH]c5ccc(O)cc45)c3C[C@H]2CN1C(=O)c1ccccc1 to the correct category.
lower level

Exam item: assign CC(C)c1ccc(NN2C(C(O)c3ccc(C#N)cc3)C=CC3C(=O)N(c4ccccc4)C(=O)C32)cc1 (centres undefined) to the correct category.
lower level

Exam item: assign O=C(O)[C@@H]1C[C@@H]2C(=O)N3CCC[C@H]3C(=O)N2[C@@H]1c1ccc(O)cc1 to the correct category.
upper level

----------
assay_name: inhibition of PAO1 biofilm formation – strain PAO1, LB-PBS medium, absorbance 600 nm, primary screen (AID 1176); also: test concentration not given here
reported_conditions: P. aeruginosa PAO1 growth/biofilm, A600, 12 h; higher = more signal
Calls of active or inactive are those of the source. No rule for the calls is given here.
experimental_readout: z-score

Example compounds with recorded z-score:
[
  {
    "compound": "CCOC(=O)C[C@H]1[C@H](OC(=O)c2ccc(C(=O)c3ccccc3)cc2)[C@@H](NC(=O)c2ccc(-c3ccccc3)cc2)c2cc(OCCCO)ccc2N1C(=O)Cc1ccc(OC)cc1",
    "z-score": "-0.358 (inactive)"
  },
  {
    "compound": "Cc1ccc(NN2C(C(O)c3c(F)cccc3Cl)C=CC3C(=O)N(C4CCCCC4)C(=O)C32)cc1 (stereo not drawn)",
    "z-score": "1.47 (inactive)"
  },
  {
    "compound": "CO[C@H]1O[C@H](CO)[C@@H](OC(=O)Nc2ccc3c(c2)OCO3)[C@H](OC(=O)Nc2ccc3c(c2)OCO3)[C@@H]1OC(=O)Nc1ccc2c(c1)OCO2",
    "z-score": "1.05 (inactive)"
  },
  {
    "compound": "O=C1OCCC/C=C\\[C@H]2OC34C=CCN(c5ccc6ccccc6c5)C(=O)[C@H]3N(CCO)C(=O)[C@@H]4C12 (stereo partly drawn)",
    "z-score": "-0.634 (inactive)"
  },
  {
    "compound": "Cc1ccc(F)cc1S(=O)(=O)N[C@@H]1CCN(Cc2ccc(Br)cc2)C1",
    "z-score": "-0.73 (inactive)"
  },
  {
    "compound": "O=C(O)[C@@H]1C[C@@H]2C(=O)N3CCC[C@H]3C(=O)N2[C@@H]1c1ccc(O)cc1",
    "z-score": "1.03 (inactive)"
  },
  {
    "compound": "CO[C@H]1O[C@H](CO)[C@@H](OC(=O)Nc2ccc(Br)cc2)[C@@H]2OC(=O)[C@@H](Cc3ccccc3)C/C=C/C[C@H](Cc3ccccc3)C(=O)O[C@@H]12",
    "z-score": "0.193 (inactive)"
  },
  {
    "compound": "COc1ccc([Si](C)(C)[C@@H]2[C@@H](CCO)O[C@]3(C(=O)N(Cc4ccccc4)c4ccc(NC(=O)[C@H](C)O)cc43)[C@H]2C)cc1",
    "z-score": "1.45 (inactive)"
  },
  {
    "compound": "COC(=O)C(CC#Cc1ccc2c(c1)[C@]1(C(=O)N2)[C@H](c2ccc(O)cc2)N2[C@H](c3ccccc3)[C@H](c3ccccc3)OC(=O)[C@H]2[C@@H]1C(=O)NC[C@H](O)c1ccccc1)C(=O)OC",
    "z-score": "0.87 (inactive)"
  },
  {
    "compound": "COC(=O)[C@@]1(Cc2ccc(F)cc2)[C@H]2c3cc(C(=O)N4CCCC4)n(Cc4ccc(C)c(F)c4F)c3C[C@H]2CN1C(=O)c1ccccc1",
    "z-score": "1 (inactive)"
  }
]

List z-score for every entry below, keeping the order given.
1. O=C1N(CCS(=O)(=O)c2ccccc2)c2ccccc2[C@H]2OC(c3ccc(OCCCO)cc3)=N[C@@]12Cc1ccccc1
2. CCOC(=O)C[C@H]1[C@H](OC(=O)c2ccc(C(=O)c3ccccc3)cc2)[C@@H](NC(=O)C2CCCCC2)c2cc(OCCCO)ccc2N1C(=O)c1ccc2ccccc2n1
3. Cn1cccc1C(O)C1C=CC2C(=O)N(c3ccccc3)C(=O)C2N1Nc1ccccc1 (stereo not drawn)

0.755 (inactive)
-0.312 (inactive)
0.571 (inactive)
